Test system: HOP-62 complex spheroids with HUVEC/MSC, viability
Assay: Anticancer human tumor HOP-62 cell line growth inhibition [RAS]; active = viability on the fitted dose curve at most 10% of control; inactive = the rest;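 note: spheroids exposed to agents for seven days before readout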
Conditions: second compound 1 µM; first compound 1 µM
Possible outcomes: active, inactive

{"columns": ["Compound", "Group Label"],
 "data": [
  ["CC1(O)CCCC1n1c(=O)c(C(F)F)cc2cnc(NC3CCN(S(C)(=O)=O)CC3)nc21 (stereo not drawn) + C=CC(=O)N1CCN(c2nc(OCC3CCCN3C)nc3c(F)c(-c4nc(N)cc(C)c4C(F)(F)F)c(Cl)cc23)C(C)C1", "inactive"],
  ["CC1(O)CCCC1n1c(=O)c(C(F)F)cc2cnc(NC3CCN(S(C)(=O)=O)CC3)nc21 (stereo not drawn) + C#Cc1c(F)ccc2cc(O)cc(-c3ncc4c(N5CC6CCC(C5)N6)nc(OCC56CCCN5CC(F)C6)nc4c3F)c12", "inactive"],
  ["O=C(c1ccc(F)c(F)c1Nc1ccc(I)cc1F)N1CC(O)([C@@H]2CCCCN2)C1 + C=CC(=O)N1CCN(c2nc(OCC3CCCN3C)nc3c(F)c(-c4nc(N)cc(C)c4C(F)(F)F)c(Cl)cc23)C(C)C1", "active"]
]}
